# target: Reverse transcriptase/RNase H (HIV-1)
# experimental protocol: The 50% inhibitory concentration was measured as inhibition of RNA-dependent DNA polymerase activity
result type: pIC50
Answers are plain numbers, as −log10 of the molar value.

Use the examples below as a reference point.
O=S(=O)(O)c1ccc2c(OS(=O)(=O)c3cccc4c(S(=O)(=O)Oc5cc(S(=O)(=O)O)cc6cc(S(=O)(=O)O)ccc56)cccc34)cc(S(=O)(=O)O)cc2c1 = 5.37
O=C(Oc1cc(S(=O)(=O)O)cc2cc(S(=O)(=O)O)ccc12)c1ccc(-c2ccc(C(=O)Oc3cc(S(=O)(=O)O)cc4cc(S(=O)(=O)O)ccc34)cc2)cc1 = 5.47
CCCCCCCCCCCCCCCC(=O)Nc1c(O)cc(S(=O)(=O)O)c2ccccc12 = 5.49

Moving on to another molecule below.
Prompt: State the recorded pIC50 for this entry: `CCCCCCCCCCCCCCCC(=O)Nc1ccc(S(=O)(=O)O)c2cccc(S(=O)(=O)O)c12`
Completion: 5.80
